test system: Human alphaherpesvirus 3; test: Antiviral activity against thymidine kinase deficient Varicella-Zoster virus infected in HEL cells assessed as reduction in virus plaque formation; assay type: functional, organism-based; settings: Human alphaherpesvirus 3, HEL
// reported EC50 for each item listed

compound	assayed target	measurement units	relation sign	EC50
C/C(=C\CP(=O)(N[C@@H](C)C(=O)OCc1ccccc1)Oc1cccc2ccccc12)Cn1cc(C)c(=O)[nH]c1=O (some centres undefined)	Human alphaherpesvirus 3	µM	=	55.3
C/C(=C\CP(=O)(N[C@@H](C)C(=O)OC(C)C)Oc1ccccc1)Cn1ccc(=O)[nH]c1=O (some centres undefined)	Human alphaherpesvirus 3	µM	>	100
C/C(=C\CP(=O)(N[C@@H](C)C(=O)OC(C)C)Oc1cccc2ccccc12)Cn1cc(C)c(=O)[nH]c1=O (some centres undefined)	Human alphaherpesvirus 3	µM	>	100
C/C(=C\CP(=O)(N[C@@H](C)C(=O)OCc1ccccc1)Oc1cccc2c1CCCC2)Cn1cc(C)c(=O)[nH]c1=O (some centres undefined)	Human alphaherpesvirus 3	µM	=	47.2

Source listed as ChEMBL document CHEMBL4118253.
